# Test system: Candida albicans
# measurement_description: Antifungal activity against Candida albicans isolate after 72 hrs by serial dilution technique
# Format: functional
Consider the following compounds; for each one, report its MIC.
One number for each entry, in µM.

The cases that follow already have their MIC on record.
1. COC(=O)c1ccc(O)c(OC)c1 [METHYL VANILLATE] | 275
2. C=C1C(=O)OCC1C/C=C(\C)CC(=O)C=C(C)C (stereo unspecified) [ANTHECOTULIDE] | 101
3. C=C1C(=O)OC[C@H]1[C@@H](O)/C=C(\C)CC(=O)C=C(C)C | 189
4. c1ccc(-c2ccc(C(c3ccccc3)n3ccnc3)cc2)cc1 (stereo unspecified) [BIFONAZOLE] | 644
5. C=C1CC[C@]2(C)CC[C@]3(C)[C@H](CC[C@@H]4[C@@]5(C)CC[C@H](O)C(C)(C)[C@@H]5CC[C@]43C)[C@@H]2[C@@H]1C | 117

Below: the item to evaluate.
QUERY: Find the recorded MIC belonging to C=C1C(=O)OC[C@H]1[C@H](/C=C(\C)CC(=O)C=C(C)C)OC(C)=O and report it.
RESULT: 81.7

###

# Tested on: Micrococcus luteus
# measurement_description: Antibacterial activity against Micrococcus luteus isolate after 48 hrs by serial dilution technique
# Format: functional
# note: exactly 80 µM is not below, so it is false; use true for MIC strictly under it

Solved cases (4 shown):
1. C=C1C(=O)OC[C@H]1[C@@H](O)/C=C(\C)CC(=O)C=C(C)C | false
2. C=C1CC[C@]2(C)CC[C@]3(C)[C@H](CC[C@@H]4[C@@]5(C)CC[C@H](O)C(C)(C)[C@@H]5CC[C@]43C)[C@@H]2[C@@H]1C | true
3. CN[C@@H]1[C@H](O[C@H]2[C@H](O[C@H]3[C@H](O)[C@@H](O)[C@H](N=C(N)N)[C@@H](O)[C@@H]3N=C(N)N)O[C@@H](C)[C@]2(O)C=O)O[C@@H](CO)[C@H](O)[C@H]1O | true
4. C=C1C(=O)OCC1C/C=C(\C)CC(=O)C=C(C)C (stereo unspecified) [ANTHECOTULIDE] | false

QUERY: In the record for COC(=O)c1ccc(O)c(OC)c1 [METHYL VANILLATE] , is MIC less than 80 µM?
RESULT: false
